# Lookup of reported pIC50 keyed by entry
Tested on: SW-480 (colon adenocarcinoma)
protocol_details: cells
Type: cell-based, human
assay_context: read-out: Cancer cell line IC50, SW480
pIC50: −log10 of the molar value.
property_name: pIC50

compound	target	property_name	readout_number
C/C=C\C(=O)O[C@@H]1[C@@H](O)[C@H]2O[C@@H]3C=C(C)C(=O)C[C@]3(C)[C@]1(C)[C@]21CO1 [Compound 10, trichothecinol A]	SW-480 (colon adenocarcinoma)	pIC50	7.96
C/C=C\C(=O)O[C@@H]1C[C@H]2O[C@@H]3C=C(C)C(=O)C[C@]3(C)[C@]1(C)[C@]21CO1 [Compound 8, trichothecin]	SW-480 (colon adenocarcinoma)	pIC50	6.74
N.N.[Cl][Pt][Cl] [Cisplatin, cisplatin, reference compound]	SW-480 (colon adenocarcinoma)	pIC50	4.92
CC1=C[C@H]2O[C@@H]3C[C@@H](O)[C@](C)([C@@]2(C)CC1=O)[C@]31CO1 [Compound 5, trichothecolone]	SW-480 (colon adenocarcinoma)	pIC50	5.07

* * *

# Lookup of reported IC50 keyed by entry
Tested on: HL-60, SMMC-7721, A549, MCF-7 and SW-480 human cancer cell lines
protocol_details: cells
Format: cell-based
assay_context: Homo sapiens, 48 h, read-out: IC50 values across the five cancer cell lines

molecule	IC50
CC1=C[C@]23O[C@@H]4CC[C@](C)([C@@]2(C)CC1)[C@]4(CO)O3 [Compound 4, 3-deoxysambucinol]	> 40 µM
CC1=C[C@]23O[C@@H]4[C@@H](O)C[C@](C)([C@@]2(C)CC1)[C@]4(CO)O3 [Compound 3, sambucinol]	> 40 µM
C/C=C\C(=O)O[C@@H]1C[C@H]2O[C@@]34C=C(C)C(=O)C[C@]3(C)[C@]1(C)[C@]2(CO)O4 [Compound 1, engleromycone A]	14.3 to 20.2 µM
C=C1[C@H]2C[C@@H](OC(=O)/C=C\C)[C@]1(C)[C@@]1(C)CC(=O)C(C)=C[C@H]1O2 [Compound 2, engleromycone B]	2.7 to 21.1 µM

Every entry's value here was drawn from paper PMC4328002.
